# SUBJECT OF TEST: rat type I collagen (rat, UniProt P02454 152-1207; P02466 86-1125)
# Sequence (P02454 152-1207, chain 1 of 2): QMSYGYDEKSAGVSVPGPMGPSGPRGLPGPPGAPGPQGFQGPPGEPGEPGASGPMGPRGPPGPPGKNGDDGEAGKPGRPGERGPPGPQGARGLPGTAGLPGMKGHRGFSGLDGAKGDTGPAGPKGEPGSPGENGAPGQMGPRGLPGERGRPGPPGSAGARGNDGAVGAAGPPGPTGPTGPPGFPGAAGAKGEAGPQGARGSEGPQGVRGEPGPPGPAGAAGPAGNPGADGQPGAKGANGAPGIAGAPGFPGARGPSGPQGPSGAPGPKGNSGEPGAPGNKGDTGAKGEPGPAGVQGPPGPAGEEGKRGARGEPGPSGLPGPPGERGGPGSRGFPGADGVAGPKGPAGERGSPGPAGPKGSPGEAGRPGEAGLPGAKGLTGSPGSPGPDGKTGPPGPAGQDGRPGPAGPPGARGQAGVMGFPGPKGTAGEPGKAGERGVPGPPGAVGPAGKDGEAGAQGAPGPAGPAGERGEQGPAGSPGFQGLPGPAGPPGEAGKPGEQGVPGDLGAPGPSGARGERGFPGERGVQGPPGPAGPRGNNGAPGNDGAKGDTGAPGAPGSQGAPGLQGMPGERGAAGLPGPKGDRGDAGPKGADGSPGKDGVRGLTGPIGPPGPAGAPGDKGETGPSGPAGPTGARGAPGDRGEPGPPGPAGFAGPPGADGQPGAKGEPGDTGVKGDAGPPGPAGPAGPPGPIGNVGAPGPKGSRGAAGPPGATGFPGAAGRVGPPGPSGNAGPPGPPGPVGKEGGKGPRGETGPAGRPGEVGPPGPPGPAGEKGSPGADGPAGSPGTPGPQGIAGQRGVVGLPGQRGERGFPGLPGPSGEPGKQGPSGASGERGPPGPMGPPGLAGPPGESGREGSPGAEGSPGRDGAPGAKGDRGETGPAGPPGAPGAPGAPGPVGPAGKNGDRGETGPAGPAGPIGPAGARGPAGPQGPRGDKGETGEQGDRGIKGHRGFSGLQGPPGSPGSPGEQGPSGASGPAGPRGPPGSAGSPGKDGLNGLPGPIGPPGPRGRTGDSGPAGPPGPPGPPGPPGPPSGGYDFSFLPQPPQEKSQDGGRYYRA
# Sequence (P02466 86-1125, chain 2 of 2): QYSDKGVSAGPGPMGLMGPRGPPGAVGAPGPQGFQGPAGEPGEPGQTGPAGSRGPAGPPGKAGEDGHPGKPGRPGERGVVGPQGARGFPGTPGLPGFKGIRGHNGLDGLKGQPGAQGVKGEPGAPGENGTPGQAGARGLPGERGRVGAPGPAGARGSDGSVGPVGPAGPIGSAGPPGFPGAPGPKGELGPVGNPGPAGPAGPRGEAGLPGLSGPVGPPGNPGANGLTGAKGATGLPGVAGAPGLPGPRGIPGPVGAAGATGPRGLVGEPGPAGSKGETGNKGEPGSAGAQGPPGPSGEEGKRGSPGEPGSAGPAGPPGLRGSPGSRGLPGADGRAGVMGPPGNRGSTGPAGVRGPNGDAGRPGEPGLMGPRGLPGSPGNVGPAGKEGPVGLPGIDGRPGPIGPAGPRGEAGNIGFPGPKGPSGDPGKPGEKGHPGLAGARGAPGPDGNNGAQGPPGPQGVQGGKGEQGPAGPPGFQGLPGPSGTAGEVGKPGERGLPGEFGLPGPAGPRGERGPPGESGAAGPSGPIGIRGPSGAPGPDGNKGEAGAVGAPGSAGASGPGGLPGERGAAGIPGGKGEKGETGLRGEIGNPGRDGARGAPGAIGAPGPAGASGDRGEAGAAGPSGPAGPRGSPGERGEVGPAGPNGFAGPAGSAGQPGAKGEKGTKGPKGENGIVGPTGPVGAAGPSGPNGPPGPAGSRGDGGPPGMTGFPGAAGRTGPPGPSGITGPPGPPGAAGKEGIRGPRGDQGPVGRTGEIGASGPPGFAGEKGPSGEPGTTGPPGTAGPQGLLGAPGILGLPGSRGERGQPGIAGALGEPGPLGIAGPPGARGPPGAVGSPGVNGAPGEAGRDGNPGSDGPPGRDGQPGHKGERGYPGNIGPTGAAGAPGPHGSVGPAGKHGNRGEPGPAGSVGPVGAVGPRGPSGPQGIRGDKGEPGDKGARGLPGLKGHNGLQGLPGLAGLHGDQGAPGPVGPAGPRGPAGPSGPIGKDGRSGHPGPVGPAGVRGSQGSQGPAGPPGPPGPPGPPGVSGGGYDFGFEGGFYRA
# PROCEDURE DETAILS: SPR
Measured Kd accompanies every entry in the list below.
METRIC: Kd (µM)

binder="CPKESCNLFVLKDDSSDSSDSS [MDP-3DSS]" measured=18.9
binder="CPKESCNLFVLKD [CBP1495]" measured=59
binder="CDWWSCWLDVLKD [MDP-a]" measured=18
